Could you please report measured Ki for the items listed next?
- target-entity: Sushi domains (SD1/2) protein
- method-summary: Fluorescence polarization (FP) competition assay with AJAP-1probe, calculated Ki
- Type: binding
- condition-context: Table 8, Ala-, D-amino acids and N-methylation scans of AJAP-1WT; read-out: Ki (nM) mean ± SEM
Non-standard residues stand in square brackets, D forms with d. Residues, ends and D or L forms follow the SMILES beside them. NMeE = CN[C@@H](CCC(=O)O)C(=O)O
State just the number; it will be interpreted in nM.

Given item CC[C@H](C)[C@H](NC(=O)[C@H](Cc1ccccc1)NC(=O)[C@H](CCC(=O)O)N(C)C(=O)[C@@H](NC(=O)[C@H](CCC(=O)O)NC(C)=O)[C@@H](C)O)C(=O)N[C@@H](C)C(=O)N[C@@H](Cc1c[nH]c2ccccc12)C(=O)NCC(=O)N1CCC[C@H]1C(=O)N[C@H](C(=O)NCC(=O)N[C@@H](CC(=O)O)C(=O)N[C@@H](CCC(=O)O)C(=O)N[C@@H](CC(=O)O)C(N)=O)[C@@H](C)O [ET(N-Me-E)FIAWGPTGDED] (Ac-ET[NMeE]FIAWGPTGDED-NH2) , the value recorded as its Ki is 159

Given item CC[C@H](C)[C@H](NC(=O)[C@H](Cc1ccccc1)NC(=O)[C@H](CCC(=O)O)NC(=O)[C@@H](NC(=O)[C@H](CCC(=O)O)NC(C)=O)[C@@H](C)O)C(=O)N[C@@H](C)C(=O)N[C@@H](Cc1c[nH]c2ccccc12)C(=O)NCC(=O)N1CCC[C@H]1C(=O)N[C@H](C(=O)NCC(=O)N[C@@H](CC(=O)O)C(=O)N(C)[C@@H](CCC(=O)O)C(=O)N[C@@H](CC(=O)O)C(N)=O)[C@@H](C)O (Ac-ETEFIAWGPTGD[NMeE]D-NH2) , the value recorded as its Ki is 31

Given item CC[C@H](C)[C@H](NC(=O)[C@H](Cc1ccccc1)NC(=O)[C@H](CCC(=O)O)NC(=O)[C@@H](NC(=O)[C@H](CCC(=O)O)NC(C)=O)[C@@H](C)O)C(=O)N[C@@H](C)C(=O)N[C@@H](Cc1c[nH]c2ccccc12)C(=O)NCC(=O)N1CCC[C@H]1C(=O)N[C@H](C(=O)NCC(=O)N[C@@H](CC(=O)O)C(=O)N[C@@H](C)C(=O)N[C@@H](CC(=O)O)C(N)=O)[C@@H](C)O (Ac-ETEFIAWGPTGDAD-NH2) , the value recorded as its Ki is 38

###

- target-entity: Sushi domains (SD1/2) protein
- method-summary: Fluorescence polarization (FP) competition assay with AJAP-1probe, calculated Ki
- Format: binding
- condition-context: Table 10, deep mutational scanning validation variants of APPWT; read-out: Ki (nM) mean ± SEM
Residues, ends and D or L forms follow the SMILES beside them.
Ki under 1000 nM gets T, anything at or over 1000 nM gets F.

Query: I'd appreciate it if you could check whether CC(=O)N[C@@H](CCC(=O)O)C(=O)N[C@@H](CC(=O)O)C(=O)N[C@@H](CC(=O)O)C(=O)N[C@@H](CO)C(=O)N[C@@H](CC(=O)O)C(=O)N[C@H](C(=O)N[C@@H](CC(=O)O)C(=O)N[C@@H](Cc1c[nH]c2ccccc12)C(=O)NCC(=O)NCC(=O)N[C@@H](C)C(=O)N[C@@H](CC(=O)O)C(=O)N[C@H](C(=O)N[C@@H](CC(=O)O)C(N)=O)[C@@H](C)O)C(C)C (Ac-EDDSDVDWGGADTD-NH2) has Ki smaller than 1000 nM.
Response: F

Query: I'd appreciate it if you could check whether CC[C@H](C)[C@H](NC(=O)[C@@H](NC(=O)[C@H](CC(=O)O)NC(=O)[C@H](CO)NC(=O)[C@H](CC(=O)O)NC(=O)[C@H](CC(=O)O)NC(=O)[C@H](CCC(=O)O)NC(C)=O)C(C)C)C(=O)N[C@@H](Cc1c[nH]c2ccccc12)C(=O)NCC(=O)NCC(=O)N[C@@H](C)C(=O)N[C@@H](CC(=O)O)C(=O)N[C@H](C(=O)N[C@@H](CC(=O)O)C(N)=O)[C@@H](C)O (Ac-EDDSDVIWGGADTD-NH2) has Ki smaller than 1000 nM.
Response: T

Query: I'd appreciate it if you could check whether CC(=O)N[C@@H](CCC(=O)O)C(=O)N[C@@H](CC(=O)O)C(=O)N[C@@H](CC(=O)O)C(=O)N[C@@H](CO)C(=O)N[C@@H](CC(=O)O)C(=O)N[C@H](C(=O)N[C@@H](Cc1c[nH]c2ccccc12)C(=O)N[C@@H](Cc1c[nH]c2ccccc12)C(=O)NCC(=O)NCC(=O)N[C@@H](C)C(=O)N[C@@H](CC(=O)O)C(=O)N[C@@H](Cc1c[nH]c2ccccc12)C(=O)N[C@@H](CC(=O)O)C(N)=O)C(C)C (Ac-EDDSDVWWGGADWD-NH2) has Ki smaller than 1000 nM.
Response: T

Query: I'd appreciate it if you could check whether CC(=O)N[C@@H](CCC(=O)O)C(=O)N[C@@H](CC(=O)O)C(=O)N[C@@H](CC(=O)O)C(=O)N[C@@H](CO)C(=O)N[C@@H](CC(=O)O)C(=O)N[C@H](C(=O)N[C@@H](Cc1c[nH]c2ccccc12)C(=O)N[C@@H](Cc1c[nH]c2ccccc12)C(=O)NCC(=O)NCC(=O)N[C@@H](Cc1ccc(O)cc1)C(=O)N[C@@H](CC(=O)O)C(=O)N[C@H](C(=O)N[C@@H](CC(=O)O)C(N)=O)[C@@H](C)O)C(C)C (Ac-EDDSDVWWGGYDTD-NH2) has Ki smaller than 1000 nM.
Response: T

Query: I'd appreciate it if you could check whether CC[C@H](C)[C@H](NC(=O)[C@H](CC(=O)O)NC(=O)[C@H](CO)NC(=O)[C@H](CC(=O)O)NC(=O)[C@H](CC(=O)O)NC(=O)[C@H](CCC(=O)O)NC(C)=O)C(=O)N[C@@H](Cc1c[nH]c2ccccc12)C(=O)N[C@@H](Cc1c[nH]c2ccccc12)C(=O)NCC(=O)NCC(=O)N[C@@H](C)C(=O)N[C@@H](CC(=O)O)C(=O)N[C@H](C(=O)N[C@@H](CC(=O)O)C(N)=O)[C@@H](C)O (Ac-EDDSDIWWGGADTD-NH2) has Ki smaller than 1000 nM.
Response: T

###

- target-entity: Sushi domains (SD1/2) protein
- method-summary: Fluorescence polarization (FP) competition assay with AJAP-1probe, calculated Ki
- Type: binding
- condition-context: Table 11, deep mutational scanning validation variants of AJAP-1WT; read-out: Ki (nM) mean ± SEM
Residues, ends and D or L forms follow the SMILES beside them.
Could you please report measured Ki for the items listed next?

Given item CC[C@H](C)[C@H](NC(=O)[C@H](Cc1ccccc1)NC(=O)[C@H](CCC(=O)O)NC(=O)[C@@H](NC(=O)[C@H](CCC(=O)O)NC(C)=O)[C@@H](C)O)C(=O)N[C@@H](C)C(=O)N[C@@H](Cc1c[nH]c2ccccc12)C(=O)NCC(=O)N1CCC[C@H]1C(=O)N[C@H](C(=O)N[C@@H](CCCNC(=N)N)C(=O)N[C@@H](CC(=O)O)C(=O)N[C@@H](CCC(=O)O)C(=O)N[C@@H](CC(=O)O)C(N)=O)[C@@H](C)O [ETEFIAWGPTRDED] (Ac-ETEFIAWGPTRDED-NH2) , the value recorded as its Ki is 32 nM

Given item CC[C@H](C)[C@H](NC(=O)[C@H](Cc1ccccc1)NC(=O)[C@H](CCC(=O)O)NC(=O)[C@@H](NC(=O)[C@H](CCC(=O)O)NC(C)=O)[C@@H](C)O)C(=O)N[C@@H](C)C(=O)N[C@@H](Cc1c[nH]c2ccccc12)C(=O)NCC(=O)N1CCC[C@H]1C(=O)N[C@H](C(=O)NCC(=O)N[C@@H](CC(=O)O)C(=O)N[C@@H](CCC(=O)O)C(=O)N[C@@H](Cc1ccc(O)cc1)C(N)=O)[C@@H](C)O , the value recorded as its Ki is 39 nM

Given item CC[C@H](C)[C@H](NC(=O)[C@H](Cc1ccccc1)NC(=O)[C@H](CCC(=O)O)NC(=O)[C@@H](NC(=O)[C@H](CCC(=O)O)NC(C)=O)[C@@H](C)O)C(=O)N[C@@H](C)C(=O)N[C@@H](Cc1c[nH]c2ccccc12)C(=O)NCC(=O)N1CCC[C@H]1C(=O)N[C@H](C(=O)NCC(=O)N[C@@H](CC(=O)O)C(=O)N[C@H](C(=O)N[C@@H](CC(=O)O)C(N)=O)C(C)C)[C@@H](C)O , the value recorded as its Ki is 39 nM

Given item CC[C@H](C)[C@H](NC(=O)[C@H](Cc1ccccc1)NC(=O)[C@H](Cc1c[nH]cn1)NC(=O)[C@@H](NC(=O)[C@H](CCC(=O)O)NC(C)=O)[C@@H](C)O)C(=O)N[C@@H](C)C(=O)N[C@@H](Cc1c[nH]c2ccccc12)C(=O)NCC(=O)N1CCC[C@H]1C(=O)N[C@H](C(=O)NCC(=O)N[C@@H](CC(=O)O)C(=O)N[C@@H](CCC(=O)O)C(=O)N[C@@H](CC(=O)O)C(N)=O)[C@@H](C)O , the value recorded as its Ki is 58 nM

Given item CC[C@H](C)[C@H](NC(=O)[C@H](Cc1ccccc1)NC(=O)[C@H](CCC(=O)O)NC(=O)[C@@H](NC(=O)[C@H](CCC(=O)O)NC(C)=O)C(C)C)C(=O)N[C@@H](C)C(=O)N[C@@H](Cc1c[nH]c2ccccc12)C(=O)NCC(=O)N1CCC[C@H]1C(=O)N[C@H](C(=O)NCC(=O)N[C@@H](CC(=O)O)C(=O)N[C@@H](CCC(=O)O)C(=O)N[C@@H](CC(=O)O)C(N)=O)[C@@H](C)O [EVEFIAWGPTGDED] (Ac-EVEFIAWGPTGDED-NH2) , the value recorded as its Ki is 28 nM

Values from patent US20260193293A1
